Molecular target: PI3Kα (p110α/p85α) (Homo sapiens)
Sequence (P42336 whole entry): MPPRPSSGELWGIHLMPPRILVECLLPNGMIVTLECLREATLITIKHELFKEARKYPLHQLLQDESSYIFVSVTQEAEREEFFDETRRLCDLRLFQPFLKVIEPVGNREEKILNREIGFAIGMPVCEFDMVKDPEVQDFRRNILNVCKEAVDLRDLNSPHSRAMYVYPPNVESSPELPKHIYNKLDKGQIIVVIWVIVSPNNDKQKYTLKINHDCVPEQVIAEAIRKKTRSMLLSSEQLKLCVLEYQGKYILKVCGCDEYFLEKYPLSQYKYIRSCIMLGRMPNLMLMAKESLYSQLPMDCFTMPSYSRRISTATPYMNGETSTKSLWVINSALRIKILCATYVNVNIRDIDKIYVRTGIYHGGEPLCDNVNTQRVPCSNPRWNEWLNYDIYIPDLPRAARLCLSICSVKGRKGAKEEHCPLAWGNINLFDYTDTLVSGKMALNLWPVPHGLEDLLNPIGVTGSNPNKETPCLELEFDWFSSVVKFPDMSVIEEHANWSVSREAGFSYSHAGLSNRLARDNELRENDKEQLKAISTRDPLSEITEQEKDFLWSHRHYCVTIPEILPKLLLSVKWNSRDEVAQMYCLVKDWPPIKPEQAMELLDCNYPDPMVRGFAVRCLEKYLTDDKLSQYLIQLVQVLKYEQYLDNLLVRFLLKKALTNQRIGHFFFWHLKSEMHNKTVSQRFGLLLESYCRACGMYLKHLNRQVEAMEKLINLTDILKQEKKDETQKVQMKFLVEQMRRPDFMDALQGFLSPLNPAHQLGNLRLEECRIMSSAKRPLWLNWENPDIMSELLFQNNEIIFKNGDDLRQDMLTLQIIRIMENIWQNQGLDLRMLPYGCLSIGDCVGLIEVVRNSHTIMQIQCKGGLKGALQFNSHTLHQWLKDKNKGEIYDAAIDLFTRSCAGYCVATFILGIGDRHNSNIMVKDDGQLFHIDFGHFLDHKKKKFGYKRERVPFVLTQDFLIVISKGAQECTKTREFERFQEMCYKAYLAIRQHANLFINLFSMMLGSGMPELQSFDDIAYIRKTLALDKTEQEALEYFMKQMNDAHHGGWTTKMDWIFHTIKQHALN
Sequence (P27986 whole entry partner): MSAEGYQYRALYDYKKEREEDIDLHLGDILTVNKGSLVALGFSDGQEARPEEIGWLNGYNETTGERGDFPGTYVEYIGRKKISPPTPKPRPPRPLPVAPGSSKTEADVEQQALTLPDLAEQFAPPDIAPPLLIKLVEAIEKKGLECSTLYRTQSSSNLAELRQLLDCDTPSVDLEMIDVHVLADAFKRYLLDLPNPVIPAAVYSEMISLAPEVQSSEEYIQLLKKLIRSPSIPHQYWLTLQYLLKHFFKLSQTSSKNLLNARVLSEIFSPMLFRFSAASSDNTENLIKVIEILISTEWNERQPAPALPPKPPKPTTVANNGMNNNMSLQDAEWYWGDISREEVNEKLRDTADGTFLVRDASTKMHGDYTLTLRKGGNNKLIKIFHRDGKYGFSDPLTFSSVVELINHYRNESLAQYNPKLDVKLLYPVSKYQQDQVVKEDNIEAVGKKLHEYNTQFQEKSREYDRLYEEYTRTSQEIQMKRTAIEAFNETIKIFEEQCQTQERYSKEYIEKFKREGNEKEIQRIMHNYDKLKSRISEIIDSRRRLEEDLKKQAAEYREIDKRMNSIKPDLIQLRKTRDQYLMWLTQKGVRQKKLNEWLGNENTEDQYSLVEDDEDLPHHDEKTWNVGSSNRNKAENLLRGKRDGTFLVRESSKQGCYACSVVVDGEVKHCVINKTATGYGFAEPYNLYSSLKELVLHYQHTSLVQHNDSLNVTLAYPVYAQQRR
Test: ADP-Glo kinase inhibition, PI3Kα
Conditions: read-out: IC50 PI3Kα Biochemical
experimental endpoint: IC50 (nM)
State the answer as a number, implicitly in nM.

# lookup: IC50 of C[C@H](Nc1nc(N)nc(N)c1C#N)c1cc2ccc(F)cc2nc1-c1ccccn1 [p-toluenesulfonate of Compound A]
117

---

Assay: Solubility in organic solvents
Assay type: physicochemical
Conditions: tetrahydrofuran, organic solvent or mixture; read-out: solubility in tetrahydrofuran
experimental endpoint: Solubility

# lookup: Solubility of C[C@H](Nc1nc(N)nc(N)c1C#N)c1cc2ccc(F)cc2nc1-c1ccccn1 [p-toluenesulfonate of Compound A]
> 11.6 mg/mL

---

Assay: Solubility in simulated gastrointestinal fluids (SGF, FeSSIF, FaSSIF) at 37° C.
Format: physicochemical
Conditions: SGF, 37 °C, pH 1.21, simulated gastric fluid, thermodynamic from solid, SGF (pH 1.21), 24 h
experimental endpoint: solubility at 24 h

# lookup: solubility at 24 h of C[C@H](Nc1nc(N)nc(N)c1C#N)c1cc2ccc(F)cc2nc1-c1ccccn1 [p-toluenesulfonate of Compound A]
> 5350 µg/mL

---

Target: PI3Kδ (Homo sapiens)
Sequence (O00329 whole entry): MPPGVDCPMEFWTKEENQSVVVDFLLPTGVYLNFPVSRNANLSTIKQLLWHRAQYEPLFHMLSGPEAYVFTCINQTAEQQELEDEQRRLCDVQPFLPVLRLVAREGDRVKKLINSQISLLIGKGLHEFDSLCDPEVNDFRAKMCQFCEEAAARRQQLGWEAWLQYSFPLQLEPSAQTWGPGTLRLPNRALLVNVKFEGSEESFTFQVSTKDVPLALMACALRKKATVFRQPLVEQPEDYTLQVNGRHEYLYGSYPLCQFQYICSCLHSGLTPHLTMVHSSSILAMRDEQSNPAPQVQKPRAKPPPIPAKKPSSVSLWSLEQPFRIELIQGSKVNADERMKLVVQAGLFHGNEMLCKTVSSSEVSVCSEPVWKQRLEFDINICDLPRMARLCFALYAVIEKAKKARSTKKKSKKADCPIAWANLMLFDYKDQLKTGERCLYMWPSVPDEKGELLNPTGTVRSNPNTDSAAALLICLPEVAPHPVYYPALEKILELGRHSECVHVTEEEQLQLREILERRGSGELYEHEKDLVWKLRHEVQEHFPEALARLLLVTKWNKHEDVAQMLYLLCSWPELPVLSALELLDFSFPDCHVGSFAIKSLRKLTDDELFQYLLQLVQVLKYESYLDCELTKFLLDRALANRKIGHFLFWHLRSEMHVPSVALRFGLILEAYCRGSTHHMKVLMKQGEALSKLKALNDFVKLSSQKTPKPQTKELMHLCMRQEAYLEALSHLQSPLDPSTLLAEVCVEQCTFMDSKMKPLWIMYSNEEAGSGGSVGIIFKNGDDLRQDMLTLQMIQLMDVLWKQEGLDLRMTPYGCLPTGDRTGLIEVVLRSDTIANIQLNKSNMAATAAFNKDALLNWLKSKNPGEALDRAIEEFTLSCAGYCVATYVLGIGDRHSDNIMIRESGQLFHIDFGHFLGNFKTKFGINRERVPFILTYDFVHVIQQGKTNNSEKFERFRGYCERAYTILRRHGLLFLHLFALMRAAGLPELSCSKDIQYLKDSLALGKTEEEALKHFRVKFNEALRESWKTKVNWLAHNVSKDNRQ
Sequence (P27986 whole entry partner): as the sequence (P27986 whole entry partner) above
Assay: Akt phosphorylation in Raji cells stimulated by IgM (AlphaLISA)
Settings: phosphorylation of Akt, read-out: IC50 PI3Kδ Cell-based
experimental endpoint: pIC50
Field pIC50 (float): negative decimal logarithm of the concentration in molar.

Query pIC50 on PI3Kδ (Homo sapiens) for C[C@H](Nc1nc(N)nc(N)c1C#N)c1cc2ccc(F)cc2nc1-c1ccccn1 [p-toluenesulfonate of Compound A]
9.02

---

Experiment: Solubility in simulated gastrointestinal fluids (SGF, FeSSIF, FaSSIF) at 37° C.
Format: physicochemical
Settings: FaSSIF, 37 °C, pH 6.52, fassif, thermodynamic from solid, FaSSIF (pH 6.52), 30 min
experimental endpoint: solubility at 30 min (µg/mL)
State the answer as a number, implicitly in µg/mL.

# lookup: solubility at 30 min of `C[C@H](Nc1nc(N)nc(N)c1C#N)c1cc2ccc(F)cc2nc1-c1ccccn1`
370

---

Biological target: PI3Kβ (Homo sapiens, UniProt P42338)
Sequence (P42338 whole entry, one chain of several): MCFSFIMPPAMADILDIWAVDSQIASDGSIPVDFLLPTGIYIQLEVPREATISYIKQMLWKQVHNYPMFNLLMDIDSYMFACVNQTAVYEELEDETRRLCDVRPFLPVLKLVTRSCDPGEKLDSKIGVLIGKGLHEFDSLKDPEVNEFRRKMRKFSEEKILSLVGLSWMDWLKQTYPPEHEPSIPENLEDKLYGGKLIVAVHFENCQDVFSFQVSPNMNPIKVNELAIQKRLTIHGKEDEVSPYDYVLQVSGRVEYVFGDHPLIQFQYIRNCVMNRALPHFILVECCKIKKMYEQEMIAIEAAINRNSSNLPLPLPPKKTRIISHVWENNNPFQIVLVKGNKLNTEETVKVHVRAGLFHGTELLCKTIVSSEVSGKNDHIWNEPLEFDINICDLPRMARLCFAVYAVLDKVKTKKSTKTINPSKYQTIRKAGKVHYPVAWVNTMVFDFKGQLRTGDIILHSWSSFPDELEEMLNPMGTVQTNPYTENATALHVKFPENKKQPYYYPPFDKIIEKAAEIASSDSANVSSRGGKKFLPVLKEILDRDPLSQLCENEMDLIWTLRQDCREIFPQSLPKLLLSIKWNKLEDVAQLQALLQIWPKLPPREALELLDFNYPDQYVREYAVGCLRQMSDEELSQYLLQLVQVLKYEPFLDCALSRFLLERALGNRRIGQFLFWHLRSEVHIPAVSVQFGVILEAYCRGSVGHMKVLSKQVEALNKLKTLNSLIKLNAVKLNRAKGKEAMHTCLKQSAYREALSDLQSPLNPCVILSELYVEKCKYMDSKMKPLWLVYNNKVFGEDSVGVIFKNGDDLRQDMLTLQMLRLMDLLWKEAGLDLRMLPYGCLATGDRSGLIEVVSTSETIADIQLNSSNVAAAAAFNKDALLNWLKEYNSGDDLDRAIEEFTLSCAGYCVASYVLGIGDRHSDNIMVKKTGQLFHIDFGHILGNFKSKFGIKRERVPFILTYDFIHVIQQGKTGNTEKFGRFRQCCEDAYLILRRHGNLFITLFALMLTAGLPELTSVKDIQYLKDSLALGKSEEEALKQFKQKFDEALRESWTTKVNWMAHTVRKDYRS
Assay: Akt phosphorylation in PC-3 cells stimulated by LPA (AlphaLISA)
Details: phosphorylation of Akt, read-out: IC50 PI3Kβ Cell-based
experimental endpoint: IC50
Please report the result as a number followed by the unit.

# lookup: IC50 of C[C@H](Nc1nc(N)nc(N)c1C#N)c1cc2ccc(F)cc2nc1-c1ccccn1 [p-toluenesulfonate of Compound A]
126 nM

---

Test system: SU-DHL-4
Experiment: Proliferation of lymphoma cell line in vitro, SU-DHL-4
Assay type: cell-based
Details: Homo sapiens, read-out: absolute IC50 (AbsIC50), proliferation
pIC50: −log10 of the molar value.
experimental endpoint: pIC50

# lookup: pIC50 of C[C@H](Nc1nc(N)nc(N)c1C#N)c1cc2ccc(F)cc2nc1-c1ccccn1 [p-toluenesulfonate of Compound A]
> 7.00

---

Target: PI3Kγ (Mus musculus, UniProt Q9JHG7)
Sequence (Q9JHG7 whole entry): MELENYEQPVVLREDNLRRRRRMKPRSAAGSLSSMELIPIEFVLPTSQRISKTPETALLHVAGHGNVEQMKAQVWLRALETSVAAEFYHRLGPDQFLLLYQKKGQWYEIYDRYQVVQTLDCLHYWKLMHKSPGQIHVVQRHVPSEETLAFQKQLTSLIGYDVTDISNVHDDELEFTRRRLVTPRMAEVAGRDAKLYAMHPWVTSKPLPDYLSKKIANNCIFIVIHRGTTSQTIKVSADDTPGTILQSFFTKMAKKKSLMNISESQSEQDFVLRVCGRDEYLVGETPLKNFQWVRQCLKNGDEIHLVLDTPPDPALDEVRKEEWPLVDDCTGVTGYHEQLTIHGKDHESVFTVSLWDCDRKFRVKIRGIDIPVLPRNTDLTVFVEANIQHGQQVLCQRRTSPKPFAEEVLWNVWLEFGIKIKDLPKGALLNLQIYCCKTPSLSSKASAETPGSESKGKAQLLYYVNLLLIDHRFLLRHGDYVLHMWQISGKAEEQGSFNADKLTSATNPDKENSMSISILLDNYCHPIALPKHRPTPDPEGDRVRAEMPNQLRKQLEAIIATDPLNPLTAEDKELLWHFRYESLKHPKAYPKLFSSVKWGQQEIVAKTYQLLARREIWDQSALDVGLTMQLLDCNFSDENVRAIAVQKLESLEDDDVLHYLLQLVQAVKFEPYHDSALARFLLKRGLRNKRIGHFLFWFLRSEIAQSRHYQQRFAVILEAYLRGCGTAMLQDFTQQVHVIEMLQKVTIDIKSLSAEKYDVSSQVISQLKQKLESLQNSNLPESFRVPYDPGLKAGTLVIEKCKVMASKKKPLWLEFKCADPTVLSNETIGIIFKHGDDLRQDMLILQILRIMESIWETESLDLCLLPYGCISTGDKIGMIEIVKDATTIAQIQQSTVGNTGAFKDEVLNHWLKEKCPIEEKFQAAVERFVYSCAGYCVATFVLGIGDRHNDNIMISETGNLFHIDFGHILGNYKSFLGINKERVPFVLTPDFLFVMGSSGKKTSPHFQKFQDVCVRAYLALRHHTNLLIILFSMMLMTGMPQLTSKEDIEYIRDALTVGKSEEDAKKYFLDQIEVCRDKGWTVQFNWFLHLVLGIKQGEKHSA
Assay: Akt phosphorylation in Raw264.7 cells stimulated by c5α (AlphaLISA)
Details: phosphorylation of Akt, read-out: IC50 PI3Kγ Cell-based
experimental endpoint: IC50
Please report the result as a number followed by the unit.

# lookup: IC50 of C[C@H](Nc1nc(N)nc(N)c1C#N)c1cc2ccc(F)cc2nc1-c1ccccn1 [p-toluenesulfonate of Compound A]
29 nM

---

Test: Solubility in simulated gastrointestinal fluids (SGF, FeSSIF, FaSSIF) at 37° C.
Type: physicochemical
Conditions: FeSSIF, 37 °C, pH 4.99, fessif, thermodynamic from solid, FeSSIF (pH 4.99), 30 min
experimental endpoint: solubility at 30 min (µg/mL)
State the answer as a number, implicitly in µg/mL.

# lookup: solubility at 30 min of C[C@H](Nc1nc(N)nc(N)c1C#N)c1cc2ccc(F)cc2nc1-c1ccccn1 [p-toluenesulfonate of Compound A]
1310

---

Assay: Solubility in organic solvents
Assay type: physicochemical
Conditions: methanol, organic solvent or mixture; read-out: solubility in methanol
experimental endpoint: Solubility

# lookup: Solubility of C[C@H](Nc1nc(N)nc(N)c1C#N)c1cc2ccc(F)cc2nc1-c1ccccn1 [p-toluenesulfonate of Compound A]
> 24 mg/mL

---

Molecular target: PI3Kδ (p110δ/p85a) (Homo sapiens, UniProt O00329)
Assay: ADP-Glo kinase inhibition, PI3Kδ
Settings: read-out: IC50 PI3Kδ Biochemical
experimental endpoint: IC50 (nM)
State the answer as a number, implicitly in nM.

# lookup: IC50 of C[C@H](Nc1nc(N)nc(N)c1C#N)c1cc2ccc(F)cc2nc1-c1ccccn1 [p-toluenesulfonate of Compound A]
0.49
